tested on: CYP3A4 mRNA; experiment: in vitro; conditions: human, EC50, induction of CYP3A4 mRNA, primary human hepatocyte donor D2
reported metric: EC50
Respond with the figure and its unit, in that order.

Request: Provide measured EC50 value, entry: CCC1(c2ccccc2)C(=O)NC(=O)NC1=O
Result: 366 µM

----------
system: CYP3A4 mRNA; experiment: CYP3A4 mRNA induction in PXR-KO HepaRG cells (real-time PCR); settings: human, PXR-KO HepaRG cells
reported metric: EC50 at 48 h (µM)
Answers are plain numbers, in µM.

Request: Provide measured EC50 at 48 h value, entry: NC(=O)N1c2ccccc2C=Cc2ccccc21 [Carbamazepine, carbamazepine]
Result: 49
